- CONDITION_DESCRIPTION: Slc:ICR, mouse, not told, iv
// Permeability into the brain: content in Brain lookup, one value per entry
TEST_READOUT: Permeability into the brain: content in Brain

molecule="Cc1ccc2sc(/C=C/c3ccc(Cl)cc3)nc2c1 [Compound N-441]" val="5.6 % ID/g or ml"
molecule="CN(C)c1ncc(/C=C/c2nc3ccccc3o2)s1 [BF-197]" val="15 % ID/g or ml"
molecule="C(=C\\c1nc2ccccc2o1)/c1ccccc1 [Compound N-407, 2-(2-phenylethenyl)-benzoxazole]" val="16.0 % ID/g or ml"
molecule="CN(C)c1ccc(/C=C/c2nc3ccccc3o2)cc1 [Compound N-282, 2-(4-dimethylamino) styrylbenzoxazole]" val="4.0 % ID/g or ml"
molecule="CNc1ccc(/C=C/c2ccc3ccccc3n2)cc1 [BF-178]" val="6.3 % ID/g or ml"
molecule="CNc1ccc(C=Cc2ccc3ccccc3n2)c(CF)c1 [BF-195]" val="4.8 % ID/g or ml"
molecule="CN(C)c1ccc2cc(-c3nc4cc(F)ccc4s3)ccc2c1 [BF-154]" val="1.1 % ID/g or ml"
molecule="CNc1ccc(/C=C/C=C/c2nc3ccccc3o2)cc1 [BF-185]" val="3.9 % ID/g or ml"
molecule="CNc1ccc(/C=C/C=C/c2nc3ccccc3s2)cc1 [BF-187]" val="3.6 % ID/g or ml"
molecule="CN(C)c1ncc(/C=C/c2nc3ccc(OCCF)cc3o2)s1 [BF-227]" val="7.9 % ID/g or ml"
molecule="Fc1ccc(/C=C/c2nc3ccccc3o2)cc1 [BF-208]" val="11.0 % ID/g or ml"

====

- CONDITION_DESCRIPTION: Slc:ICR, mouse, not told, iv
Structures can show the parent of a compound that is named as a salt.
The compounds listed here are annotated with their Permeability into the brain: content in Brain.
TEST_READOUT: Permeability into the brain: content in Brain

compound=Cc1nc(/C=C/c2ccc(N(C)C)cc2)oc1C val="6.5 % ID/g or ml"
compound="CCN(CC)c1ccc(/C=C/c2nc3ccccc3o2)cc1 [BF-125, hydrochloride]" val="3.0 % ID/g or ml"
compound=CNc1ccc(C=Cc2ccc3ccccc3n2)c(O)c1 val="9.9 % ID/g or ml"
compound=CNc1ccc(/C=C/c2nc3ccc(O)cc3o2)cc1 val="7.2 % ID/g or ml"
compound=Clc1ccc(/C=C/c2nc3ccccc3[nH]2)cc1 val="7.1 % ID/g or ml"
compound=Cc1nc(/C=C/c2cnc(N(C)C)s2)oc1C val="9.0 % ID/g or ml"

====

- Test system: ScN2a cells
- CONDITION_DESCRIPTION: mouse
TEST_READOUT: Concentration of inhibiting cell proliferation TC (µM)

molecule=CNc1ccc(C=Cc2ccc3cc(I)ccc3n2)c(O)c1 qualifying_sign=> val=10
molecule=CN(C)c1ccc(/C=C/c2nc3ccccc3s2)c(O)c1 qualifying_sign=> val=10
molecule=CN(C)c1ncc(/C=C/c2nc3ccccc3s2)s1 qualifying_sign=> val=10
molecule=Cc1ccc2sc(/C=C/c3ccc(Cl)cc3)nc2c1 qualifying_sign== val=100
molecule=CN(C)c1ccc(/C=C/c2nc3ccc(F)cc3o2)cc1 qualifying_sign== val=10
molecule=Nc1ccc(-c2nc3cc(N)ccc3s2)c(O)c1 qualifying_sign== val=10
molecule=CNc1ccc(/C=C/c2nc3cc(I)ccc3o2)cc1 qualifying_sign== val=100
molecule=CN(C)c1ccc(/C=C/c2nccn2C)cc1 qualifying_sign== val=100
molecule=Clc1ccc(/C=C/c2nc3ccccc3o2)cc1 qualifying_sign=> val=10
molecule=CNc1ccc(/C=C/c2nc3ccc(OCCF)cc3o2)cc1 qualifying_sign== val=10
molecule="CN(C)c1ccc(-c2ccc3ccccc3n2)cc1 [Compound N-310, 2-[(4-dimethylamino)-phenyl]quinoline]" qualifying_sign== val=50
molecule=Nc1ccc(-c2nc3cc(Oc4ccc5[nH]c(-c6ccc(N)cc6)nc5c4)ccc3[nH]2)cc1 qualifying_sign== val=10
molecule=Cc1ccc2nc(-c3ccc(NC(=O)Nc4cccc(Cl)c4)cc3)sc2c1 qualifying_sign=> val=10
molecule=Nc1ccc(-c2ccc3cc(CF)ccc3n2)c(O)c1 qualifying_sign== val=10
molecule=Nc1ccc(-c2nc3ccc(N)cc3[nH]2)cc1 qualifying_sign== val=10
molecule=Nc1ccc(-c2nc3cc(N)ccc3o2)cc1 qualifying_sign=> val=10
molecule=COc1cc(/C=C/c2nc3ccccc3s2)cc(OC)c1 qualifying_sign== val=100
molecule=CN(C)c1ccc(/C=C/c2nc3cc(F)ccc3o2)cc1 qualifying_sign== val=50
molecule=Nc1ccccc1/C=C/c1nc2ccccc2[nH]1 qualifying_sign== val=50
molecule=C(=C\c1cncs1)/c1nc2ccccc2o1 qualifying_sign=> val=10
molecule=CN(C)c1ccc(/C=C/c2nc3cc(F)ccc3s2)cc1 qualifying_sign== val=100
molecule=CN(C)c1ncc(-c2ccc3ccccc3n2)o1 qualifying_sign=> val=10
molecule=Cc1ccc2sc(/C=C/c3ccccc3C)nc2c1 qualifying_sign== val=100
molecule=COc1ccc(/C=C/c2nc3ccccc3s2)cc1 qualifying_sign== val=100
molecule=CN(C)c1ncc(/C=C/c2ccc3ccccc3n2)s1 qualifying_sign=> val=10
molecule=Nc1ccc(C(=O)Nc2ccc(-c3nc4cc(Cl)c(NC(=O)c5ccc(N)cc5)cc4[nH]3)cc2)cc1 qualifying_sign== val=10
molecule="Nc1ccc(-c2ccc3ccccc3n2)cc1 [BF-170, 2-[(4-amino)phenyl]-quinoline]" qualifying_sign== val=100
molecule=CNc1ccc(/C=C/c2nc3ccccc3o2)cc1 qualifying_sign== val=100
molecule=Clc1ccc(/C=C/c2nc3ccccc3[nH]2)cc1 qualifying_sign== val=100
molecule=Cc1ccc2nc(-c3ccc(NC(=O)c4cccs4)cc3)sc2c1 qualifying_sign=> val=100
molecule=Cc1ccc2nc(-c3sc(-c4ccccc4)nc3C)cn2c1 qualifying_sign== val=100
molecule="CCN(CC)c1ccc(-c2ccc3ccccc3n2)cc1 [Compound N-313, 2-[(4-diethylamino)-phenyl]quinoline]" qualifying_sign== val=50
